Reference source: PubChem BioAssay (NCATS)

- Method: OV-SAHO Cancer Cell Toxicity qHTS against the NCATS CANVASS Library (AID 1347348); further: nearly all actives have a fitted effect of over 55% in size; further: potency means the concentration at half of the fitted maximal effect
- Protocol Conditions: OV-SAHO viability, CellTiter-Glo luminescence, 72 h; series mostly up to 38.3 µM
Results filed as inconclusive are left out. Activity calls are given as the source filed them. The call rests on the fitted dose curve; in most records, active means well fitted cell-killing curve with a large enough effect; inconclusive means small, poorly fitted or top-dose-only effect; inactive means flat fitted curve, though single readings scatter. Peptide text beside a SMILES is read from it. * marks the point of attachment. Hexanoyl = CCCCCC(=O)*
Readout Label: Potency

# annotated cases, reported Potency shown
>  <Compound>
CCCCCC(=O)N[C@@H](CC(C)C)C(=O)N[C@H](C=O)CCC(=O)O (Hexanoyl-Leu-Glu-aldehyde)

>  <Potency>
inactive

$$$$
>  <Compound>
COc1ccc([C@@H]2c3cc4c(cc3C[C@H](C)C2C)OCO4)cc1OC (stereo not given in full)

>  <Potency>
inactive

$$$$
>  <Compound>
C=C1C[C@]23C=CC(=O)[C@@](C)(CCCC(C)C(=O)N[C@@H](CO)C(=O)O)[C@@H]2C[C@@H]1CC3 (stereo not given in full)

>  <Potency>
inactive

$$$$
>  <Compound>
C/C=C(/C)c1cc(O)c(C)c2c1Oc1cc(O)cc(C)c1C(=O)O2

>  <Potency>
inactive

$$$$
>  <Compound>
C=C1CCC2C(C)(C(=O)O)CCC(CC/C(C)=C/C(=O)NC(CCC(N)=O)C(=O)O)[C@@]2(C)C1 (stereo not given in full)

>  <Potency>
inactive

$$$$
>  <Compound>
Oc1ccc(C2Oc3cc(O)c4c(c3[C@@H]2c2cc(O)cc(O)c2)[C@H]2C(c3ccc(O)cc3)c3c(O)cc5c(c3[C@H]2C4c2ccc(O)cc2)[C@H](c2cc(O)cc(O)c2)C(c2ccc(O)cc2)O5)cc1 (stereo not given in full)

>  <Potency>
16.7 µM (active)

$$$$
>  <Compound>
O[C@H]1c2ccccc2-c2c3c(cc4c2[C@@H]1NCC4)OCO3

>  <Potency>
inactive

$$$$
>  <Compound>
C[C@H](c1cnc(N)[nH]1)c1ccc(O)c2[nH]cc(-c3cnc(-c4c[nH]c5ccccc45)c(=O)[nH]3)c12

>  <Potency>
inactive

$$$$

Hi team, please reply with Potency for each item in this list.
1. C/C=C/[C@H]1[C@H]2C(=O)c3c(O)c(C)c(O)c(C)c3[C@]1(C(=O)O)C(=O)C=C2C
2. COC(=O)[C@@]12Oc3cccc(O)c3C(O)=C1C(=O)C[C@H](C)[C@H]2O
3. C=C[C@@]1(C)CC[C@@H]([C@H](C)C(C)=O)O1
4. COc1ccc([C@@H]2c3cc4c(cc3C(=O)C(C)C2C)OCO4)cc1OC (stereo not given in full)
5. CC(=O)Oc1cc2c(c(OC(C)=O)c1C1CCc3cc(Cl)c(Cl)n31)C(=O)n1c-2cc(Cl)c1Cl (stereo not given)
6. C=C1CC[C@@H](Br)C(C)(C)[C@]12CC=C(C)C(=O)C2
7. C/C=C(/CO)C(=O)O[C@@H]1[C@H](O)[C@@H](C(=O)OC)O[C@@H]2C[C@H]3OC(n4cnc5c(N)ncnc54)[C@H](OC)[C@H]3O[C@@]12O (stereo not given in full)

stdout:
1: inactive; 2: inactive; 3: inactive; 4: inactive; 5: 7.47 µM (active); 6: inactive; 7: inactive

Field: Potency. Fill in for each record below.
1. COc1c(O)cc(O)c2c(=O)cc(-c3ccccc3)oc12
2. C=C(Cl)[C@](Cl)(CBr)CC[C@@H](Br)C(C)(C)Cl
3. CCC(=O)N[C@@H](C[C@H](C)C(Cl)(Cl)Cl)C(=O)N1C(=O)C=C(OC)[C@@H]1CC(C)C

stdout:
inactive
inactive
inactive

# map each compound to its Potency
1. CN1CC[C@]23c4ccccc4N[C@H]1[C@]21CCN(C)[C@H]3Nc2ccccc21
2. COc1cc2c(c(O)c1O)C(=O)c1c(coc1C)C2=O

stdout:
inactive
4.2 µM (active)
